These entries and their values trace back to the supplement of paper PMC5998384.

Tested on: HeLa Kyoto
Assay: solubility in G1/S (NP-40 vs SDS abundance) (log2 ratio); higher = more soluble
Conditions: cell cycle stage: G1/S
Answer each item with its documented solubility in G1/S (log2).
Number only, please.

Determine from records and report solubility in G1/S (log2) for MDNRFATAFVIACVLSLISTIYMAASIGTDFWYEYRSPVQENSSDLNKSIWDEFISDEADEKTYNDALFRYNGTVGLWRRCITIPKNMHWYSPPERTESFDVVTKCVSFTLTEQFMEKFVDPGNHNSGIDLLRTYLWRCQFLLPFVSLGLMCFGALIGLCACICRSLYPTIATGILHLLAGLCTLGSVSCYVAGIELLHQKLELPDNVSGEFGWSFCLACVSAPLQFMASALFIWAAHTNRKEYTLMKAYRVA [CLDND1]
-0.395

Respond only with solubility in G1/S (log2) recorded for MASKGPSASASPENSSAGGPSGSSNGAGESGGQDSTFECNICLDTAKDAVISLCGHLFCWPCLHQWLETRPNRQVCPVCKAGISRDKVIPLYGRGSTGQQDPREKTPPRPQGQRPEPENRGGFQGFGFGDGGFQMSFGIGAFPFGIFATAFNINDGRPPPAVPGTPQYVDEQFLSRLFLFVALVIMFWLLIA [RNF185]
0.352

* * *

System: HeLa Kyoto
Test: solubility change mitosis vs G1/S (difference of NP-40 vs SDS log2 ratios) (log2 ratio difference); higher = more soluble in mitosis
For each of the substances below, state its solubility change mitosis (log2).
Reply with just the number.

Give reported solubility change mitosis (log2) value for MSVRVARVAWVRGLGASYRRGASSFPVPPPGAQGVAELLRDATGAEEEAPWAATERRMPGQCSVLLFPGQGSQVVGMGRGLLNYPRVRELYAAARRVLGYDLLELSLHGPQETLDRTVHCQPAIFVASLAAVEKLHHLQPSVIENCVAAAGFSVGEFAALVFAGAMEFAEGLYAVKIRAEAMQEASEAVPSGMLSVLGQPQSKFNFACLEAREHCKSLGIENPVCEVSNYLFPDCRVISGHQEALRFLQKNSSKFHFRRTRMLPVSGAFHTRLMEPAVEPLTQALKAVDIKKPLVSVYSNVHAHRYRHPGHIHKLLAQQLVSPVKWEQTMHAIYERKKGRGFPQTFEVGPGRQLGAILKSCNMQAWKSYSAVDVLQTLEHVDLDPQEPPR [MCAT]
-0.00154

Tell us which solubility change mitosis (log2) value is on record for MPLPVALQTRLAKRGILKHLEPEPEEEIIAEDYDDDPVDYEATRLEGLPPSWYKVFDPSCGLPYYWNADTDLVSWLSPHDPNSVVTKSAKKLRSSNADAEEKLDRSHDKSDRGHDKSDRSHEKLDRGHDKSDRGHDKSDRDRERGYDKVDRERERDRERDRDRGYDKADREEGKERRHHRREELAPYPKSKKAVSRKDEELDPMDPSSYSDAPRGTWSTGLPKRNEAKTGADTTAAGPLFQQRPYPSPGAVLRANAEASRTKQQD [PQBP1]
0.599

Tell me its solubility change mitosis (log2) given MTLEAIRYSRGSLQILDQLLLPKQSRYEAVGSVHQAWEAIRAMKVRGAPAIALVGCLSLAVELQAGAGGPGLAALVAFVRDKLSFLVTARPTAVNMARAARDLADVAAREAEREGATEEAVRERVICCTEDMLEKDLRDNRSIGDLGARHLLERVAPSGGKVTVLTHCNTGALATAGYGTALGVIRSLHSLGRLEHAFCTETRPYNQGARLTAFELVYEQIPATLITDSMVAAAMAHRGVSAVVVGADRVVANGDTANKVGTYQLAIVAKHHGIPFYVAAPSSSCDLRLETGKEIIIEERPGQELTDVNGVRIAAPGIGVWNPAFDVTPHDLITGGIITELGVFAPEELRTALTTTISSRDGTLDGPQM [MRI1] as the entry.
-0.154

Identify solubility change mitosis (log2) associated with the substance `ARHGEF17`
0.166

Answer with reported solubility change mitosis (log2) of MVQLRPRASRAPASAEAMVDEGQLASEEEEAEHGLLLGQPSSGAAAEPLEEDEEGDDEFDDEAPEELTFASAQAEAREEERRVRETVRRDKTLLKEKRKRREELFIEQKKRKLLPDTILEKLTTASQTNIKKSPGKVKEVNLQKKNEDCEKGNDSKKVKVQKVQSVSQNKSYLAVRLKDQDLRDSRQQAAQAFIHNSLYGPGTNRTTVNKFLSLANKRLPVKRAAVQFLNNAWGIQKKQNAKRFKRRWMVRKMKTKK [NOL7]
0.763

Fill in solubility change mitosis (log2) for record MDNSGKEAEAMALLAEAERKVKNSQSFFSGLFGGSSKIEEACEIYARAANMFKMAKNWSAAGNAFCQAAQLHLQLQSKHDAATCFVDAGNAFKKADPQEAINCLMRAIEIYTDMGRFTIAAKHHISIAEIYETELVDIEKAIAHYEQSADYYKGEESNSSANKCLLKVAGYAALLEQYQKAIDIYEQVGTNAMDSPLLKYSAKDYFFKAALCHFCIDMLNAKLAVQKYEELFPAFSDSRECKLMKKLLEAHEEQNVDSYTESVKEYDSISRLDQWLTTMLLRIKKTIQGDEEDLR [NAPA]
0.0471

* * *

Tested on: HeLa Kyoto
Assay: solubility change mitosis vs G1/S (difference of NP-40 vs SDS log2 ratios) (log2 ratio difference); higher = more soluble in mitosis
Would you please tag the item label 1 when its solubility change mitosis (log2) is -0.04 or above, and label 0 when it is below?

Answer whether solubility change mitosis (log2) of MTRGNQRELARQKNMKKQSDSVKGKRRDDGLSAAARKQRDSEIMQQKQKKANEKKEEPK [SERF2] is greater than or equal to -0.04.
label 1

Does solubility change mitosis (log2) meet or surpass -0.04 for MESVSCSAAAVRTGDMESQRDLSLVPERLQRREQERQLEVERRKQKRQNQEVEKENSHFFVATFVRERAAVEELLERAESVERLEEAASRLQGLQKLINDSVFFLAAYDLRQGQEALARLQAALAERRRGLQPKKRFAFKTRGKDAASSTKVDAAPGIPPAVESIQDSPLPKKAEGDLGPSWVCGFSNLESQVLEKRASELHQRDVLLTELSNCTVRLYGNPNTLRLTKAHSCKLLCGPVSTSVFLEDCSDCVLAVACQQLRIHSTKDTRIFLQVTSRAIVEDCSGIQFAPYTWSYPEIDKDFESSGLDRSKNNWNDVDDFNWLARDMASPNWSILPEEERNIQWD [TBCC] ?
label 0

Check the entry MLFLALGSPWAVELPLCGRRTALCAAAALRGPRASVSRASSSSGPSGPVAGWSTGPSGAARLLRRPGRAQIPVYWEGYVRFLNTPSDKSEDGRLIYTGNMARAVFGVKCFSYSTSLIGLTFLPYIFTQNNAISESVPLPIQIIFYGIMGSFTVITPVLLHFITKGYVIRLYHEATTDTYKAITYNAMLAETSTVFHQNDVKIPDAKHVFTTFYAKTKSLLVNPVLFPNREDYIHLMGYDKEEFILYMEETSEEKRHKDDK [TMEM70] : does solubility change mitosis (log2) equal or exceed -0.04?
label 0

solubility change mitosis (log2) >= -0.04 for MWSAGRGGAAWPVLLGLLLALLVPGGGAAKTGAELVTCGSVLKLLNTHHRVRLHSHDIKYGSGSGQQSVTGVEASDDANSYWRIRGGSEGGCPRGSPVRCGQAVRLTHVLTGKNLHTHHFPSPLSNNQEVSAFGEDGEGDDLDLWTVRCSGQHWEREAAVRFQHVGTSVFLSVTGEQYGSPIRGQHEVHGMPSANTHNTWKAMEGIFIKPSVEPSAGHDEL [SDF2L1] ?
label 0

Answer whether solubility change mitosis (log2) of MEALILEPSLYTVKAILILDNDGDRLFAKYYDDTYPSVKEQKAFEKNIFNKTHRTDSEIALLEGLTVVYKSSIDLYFYVIGSSYENELMLMAVLNCLFDSLSQMLRKNVEKRALLENMEGLFLAVDEIVDGGVILESDPQQVVHRVALRGEDVPLTEQTVSQVLQSAKEQIKWSLLR [COPZ1] is greater than or equal to -0.04.
label 1

State whether the measured solubility change mitosis (log2) reaches -0.04, counting equality as reaching it, for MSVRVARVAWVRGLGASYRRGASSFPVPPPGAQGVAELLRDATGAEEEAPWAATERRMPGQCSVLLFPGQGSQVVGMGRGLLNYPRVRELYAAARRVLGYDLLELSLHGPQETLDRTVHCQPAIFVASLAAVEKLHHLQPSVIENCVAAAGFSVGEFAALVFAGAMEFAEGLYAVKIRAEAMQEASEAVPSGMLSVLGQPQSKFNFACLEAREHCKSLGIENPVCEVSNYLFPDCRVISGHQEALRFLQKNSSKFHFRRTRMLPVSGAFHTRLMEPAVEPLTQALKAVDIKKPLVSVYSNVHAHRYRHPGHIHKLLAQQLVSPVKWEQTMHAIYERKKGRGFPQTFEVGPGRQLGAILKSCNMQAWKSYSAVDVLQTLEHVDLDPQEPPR [MT]
label 0

Hi team, for MLARAARGTGALLLRGSLLASGRAPRRASSGLPRNTVVLFVPQQEAWVVERMGRFHRILEPGLNILIPVLDRIRYVQSLKEIVINVPEQSAVTLDNVTLQIDGVLYLRIMDPYKASYGVEDPEYAVTQLAQTTMRSELGKLSLDKVFRERESLNASIVDAINQAADCWGIRCLRYEIKDIHVPPRVKESMQMQVEAERRKRATVLESEGTRESAINVAEGKKQAQILASEAEKAEQINQAAGEASAVLAKAKAKAEAIRILAAALTQHNGDAAASLTVAEQYVSAFSKLAKDSNTILLPSNPGDVTSMVAQAMGVYGALTKAPVPGTPDSLSSGSSRDVQGTDASLDEELDRVKMS [STOML2] , is the recorded solubility change mitosis (log2) at or above -0.04?
label 1

Check if solubility change mitosis (log2) >= -0.04 (inclusive). Item: MACLSPSQLQKFQQDGFLVLEGFLSAEECVAMQQRIGEIVAEMDVPLHCRTEFSTQEEEQLRAQGSTDYFLSSGDKIRFFFEKGVFDEKGNFLVPPEKSINKIGHALHAHDPVFKSITHSFKVQTLARSLGLQMPVVVQSMYIFKQPHFGGEVSPHQDASFLYTEPLGRVLGVWIAVEDATLENGCLWFIPGSHTSGVSRRMVRAPVGSAPGTSFLGSEPARDNSLFVPTPVQRGALVLIHGEVVHKSKQNLSDRSRQAYTFHLMEASGTTWSPENWLQPTAELPFPQLYT [PHYHD1]
label 0

Given MFGPAKGRHFGVHPAPGFPGGVSQQAAGTKAGPAGAWPVGSRTDTMWRLRCKAKDGTHVLQGLSSRTRVRELQGQIAAITGIAPGGQRILVGYPPECLDLSNGDTILEDLPIQSGDMLIIEEDQTRPRSSPAFTKRGASSYVRETLPVLTRTVVPADNSCLFTSVYYVVEGGVLNPACAPEMRRLIAQIVASDPDFYSEAILGKTNQEYCDWIKRDDTWGGAIEISILSKFYQCEICVVDTQTVRIDRFGEDAGYTKRVLLIYDGIHYDPLQRNFPDPDTPPLTIFSSNDDIVLVQALELADEARRRRQFTDVNRFTLRCMVCQKGLTGQAEAREHAKETGHTNFGEV [YOD1] , state whether its solubility change mitosis (log2) is at least -0.04.
label 1
